Below, each entry is listed with its recorded GI50.
tested on: LOX IMVI melanoma; experiment: NCI tumour cell line growth inhibition, 48 h
MEASURED METRIC: GI50

molecule=CCc1cccc(NC(=O)Nc2ccc(Oc3ccc4nc(NC(=O)OC)[nH]c4c3)cc2)c1 measured_metric=GI50 observed="3.77 µM"
molecule=Cc1nc2ccccc2c(/C=C/c2ccccc2)c1C(=O)/C=C/c1ccc(C(F)(F)F)cc1 measured_metric=GI50 observed="1.09 µM"
molecule="CCN(CCO)CCCC(C)Nc1ccnc2cc(Cl)ccc12 (stereo not drawn)" measured_metric=GI50 observed="> 100 µM"
molecule=COc1cc2c(c(OC)c1OC)-c1c(c3ccc([N+](=O)[O-])cc3c(=O)n1CCCBr)C2=O measured_metric=GI50 observed="31.9 µM"
molecule=COc1cc2c(/C=C3/C(=O)Nc4ccc(O)cc43)c(Cl)n(Cc3cc(OC)c(OC)c(OC)c3)c2cc1C measured_metric=GI50 observed="2.05 µM"
molecule=C#CCOC(=O)/C=C/C(=O)Oc1ccc2c(C)cc(=O)oc2c1 measured_metric=GI50 observed="> 100 µM"
molecule=CCCCc1n(Cc2ccc3ccccc3n2)cc[n+]1Cc1ccc2ccccc2n1 measured_metric=GI50 observed="1.52 µM"
molecule=O=c1oc2ccc(Cl)cc2c(=O)n1-c1ccc(F)cc1F measured_metric=GI50 observed="2.4 µM"

// provenance: PubChem BioAssay (NCI)
